Let's look at some molecules and their measured IC50.
target: Renin (Homo sapiens, UniProt P00797); experiment: Inhibition against recombinant human renin (rHR)
Sequence (P00797 whole entry): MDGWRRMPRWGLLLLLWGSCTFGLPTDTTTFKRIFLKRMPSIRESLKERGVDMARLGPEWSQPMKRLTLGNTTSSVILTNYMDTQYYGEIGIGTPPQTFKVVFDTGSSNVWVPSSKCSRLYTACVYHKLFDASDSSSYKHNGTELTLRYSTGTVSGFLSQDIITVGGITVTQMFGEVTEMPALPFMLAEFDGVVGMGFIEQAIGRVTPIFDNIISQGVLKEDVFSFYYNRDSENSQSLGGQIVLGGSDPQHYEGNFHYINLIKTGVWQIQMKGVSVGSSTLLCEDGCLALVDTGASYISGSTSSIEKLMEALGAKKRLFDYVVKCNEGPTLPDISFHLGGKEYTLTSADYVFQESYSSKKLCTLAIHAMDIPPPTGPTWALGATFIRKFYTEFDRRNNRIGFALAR
The figure you give is taken to be in µM; do not add the unit.

CSC[C@H](NC(C)=O)C(=O)N[C@@H](Cc1ccc(-c2ccccc2)cc1)[C@@H](O)[C@@H](O)CC(C)C
1.1

Which IC50 value is on record for `CSC[C@H](NC(=O)CNC(=O)N1CCC(=O)CC1)C(=O)N[C@@H](Cc1ccc(-c2ccccc2)cc1)[C@@H](O)[C@@H](O)CC(C)C` ?
0.13

# query: IC50 of entry `CSC[C@H](NC(C)=O)C(=O)N[C@@H](Cc1cccc(-c2ccccc2)c1)[C@@H](O)[C@@H](O)CC(C)C`
1.6

What does the data say about its IC50? Entry: `CSC[C@H](NC(C)=O)C(=O)N[C@@H](CC1CCCCC1)[C@@H](O)[C@@H](O)CC(C)C`
5.1
